test_summary: Selectivity index, ratio of CC50 for cytotoxicity against mouse Neuro-2a cells to EC50 for antiviral activity against Venezuelan equine encephalitis virus TC-83 infected in mouse Neuro-2a cells
Type: toxicity, cell-based
experimental_conditions: read-out: Ratio CC50/EC50
As shown below, each of these molecules has a reported selectivity ratio value.
endpoint: selectivity ratio

# smiles_input, endpoint_result
rows = [
    ("CC1=CC(C)(C)Nc2c(C(=O)NC/C=C/S(C)(=O)=O)cccc21", "> 5"),
    ("C[C@@H]1CC(C)(C)Nc2c(C(=O)N[C@H](/C=C/S(C)(=O)=O)Cc3ccccc3)cccc21", "> 4"),
    ("CC1=CC(C)(C)Nc2c(C(=O)N[C@@H](C)/C=C/S(C)(=O)=O)cccc21", "> 7.3"),
    ("CN1CCN(C)/C(=N\\c2ccc([N+](=O)[O-])cc2C(=O)Nc2ccccc2)C1", "> 125"),
    ("C[C@@H]1CC(C)(C)Nc2c(C(=O)NC/C=C/S(C)(=O)=O)cccc21", "> 12"),
]

Each recorded value in this set is attributed to ChEMBL document CHEMBL4725463.
